Value source: patent US20160362487A1

# Tgt: T1, human IL-33 (R&D Systems, #3625-IL-010/CF) (human, UniProt O95760 112-270)
# T1 construct: Commercial recombinant protein; also called hIL-33; interleukin-33
# T1 sequence (looked up): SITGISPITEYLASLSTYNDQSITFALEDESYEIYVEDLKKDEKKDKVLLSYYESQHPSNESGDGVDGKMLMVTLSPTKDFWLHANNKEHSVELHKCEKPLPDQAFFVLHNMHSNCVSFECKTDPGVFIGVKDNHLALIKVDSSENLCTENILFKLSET
# Experiment: SPR 25C pH7.4, mAb captured
Listed here are binders together with their documented koff.
Report the value in s⁻¹ with no unit label.

Here are 2 binders together with their reported answers.
H4H9629P (antibody, human IgG4, V domains shown, Human IgG4 Fc (H4H)) VH: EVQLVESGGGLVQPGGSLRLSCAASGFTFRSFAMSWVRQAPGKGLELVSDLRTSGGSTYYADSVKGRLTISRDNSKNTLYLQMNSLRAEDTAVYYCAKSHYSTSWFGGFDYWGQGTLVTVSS VL: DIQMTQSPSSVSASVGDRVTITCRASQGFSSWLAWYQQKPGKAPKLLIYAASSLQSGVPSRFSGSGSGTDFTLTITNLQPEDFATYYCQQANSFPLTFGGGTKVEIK ... 0.000226
H4H9640P (antibody, human IgG4, V domains shown, Human IgG4 Fc (H4H)) VH: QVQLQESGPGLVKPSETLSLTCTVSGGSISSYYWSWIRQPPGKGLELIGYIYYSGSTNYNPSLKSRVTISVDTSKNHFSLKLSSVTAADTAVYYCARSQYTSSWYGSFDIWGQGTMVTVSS VL: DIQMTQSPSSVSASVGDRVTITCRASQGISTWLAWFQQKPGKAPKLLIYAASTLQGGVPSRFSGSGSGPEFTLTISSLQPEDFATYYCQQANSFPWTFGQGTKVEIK ... 0.000237

// moving on: another record for koff
koff recorded for this binder, H4H9672P (antibody, human IgG4, V domains shown, Human IgG4 Fc (H4H)) VH: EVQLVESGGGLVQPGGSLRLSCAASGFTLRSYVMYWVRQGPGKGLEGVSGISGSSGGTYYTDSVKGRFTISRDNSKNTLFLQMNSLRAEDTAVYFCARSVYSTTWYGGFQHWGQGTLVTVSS VL: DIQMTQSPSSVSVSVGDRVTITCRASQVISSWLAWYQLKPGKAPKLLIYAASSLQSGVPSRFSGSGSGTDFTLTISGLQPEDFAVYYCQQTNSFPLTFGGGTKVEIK , is 0.000352
